Provenance of the data: the supplement of paper PMC6555819

# Test system: RARa homodimer (NR concentration 270 nM)
# test_summary: PBM binding z-score (relative to random genomic background probes); higher = stronger binding; sequences stand for … in GC…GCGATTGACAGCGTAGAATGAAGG
If the reported PBM binding z-score equals or exceeds 0.6, assign Y. If not, assign N.

INPUT: Record GCTAGTTGGTCAGTAAAGGGTCACACACCGGTCG ; criterion: PBM binding z-score no lower than 0.6. Met?
OUTPUT: N

INPUT: Record CCTAGCAGGCCAGGGTCCCTCAAGCATTTCGCTT ; criterion: PBM binding z-score no lower than 0.6. Met?
OUTPUT: N

INPUT: Record TGAATAAGGTTAAAGATCAGGGAACGTGGCGTCG ; criterion: PBM binding z-score no lower than 0.6. Met?
OUTPUT: Y

INPUT: Record AGTCTAAGTTCACTAGGTAACGTAAGATTCAGCT ; criterion: PBM binding z-score no lower than 0.6. Met?
OUTPUT: Y

INPUT: Record CGAACTAGGTCATTGACAGGACAGTTAATAGTAA ; criterion: PBM binding z-score no lower than 0.6. Met?
OUTPUT: Y

Continuing:
INPUT: Record GCGACTGGGGTAAAGCAGGTTACCATAAGGTTGG ; criterion: PBM binding z-score no lower than 0.6. Met?
OUTPUT: N

INPUT: Record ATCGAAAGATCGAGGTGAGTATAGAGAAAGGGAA ; criterion: PBM binding z-score no lower than 0.6. Met?
OUTPUT: N

INPUT: Record CGAACTAGGTCATCCAGGACAGTGTATACATTGA ; criterion: PBM binding z-score no lower than 0.6. Met?
OUTPUT: N

INPUT: Record AGAATGAGGTTACCAAATATCAGGGAAACGCTTG ; criterion: PBM binding z-score no lower than 0.6. Met?
OUTPUT: N

INPUT: Record TCTTGTACATCAGCAGGTTAAGAAAGCTGGCCAA ; criterion: PBM binding z-score no lower than 0.6. Met?
OUTPUT: N

INPUT: Record GATACAGGGTCATGGCCAGAGTACGCGTATTGAT ; criterion: PBM binding z-score no lower than 0.6. Met?
OUTPUT: N

INPUT: Record ACTAGCCGGCCAAGGGTCACTCAAGATTAGTCCG ; criterion: PBM binding z-score no lower than 0.6. Met?
OUTPUT: N

INPUT: Record CGACCAAGGTGAACAAGGTCGTTGATTACTATTC ; criterion: PBM binding z-score no lower than 0.6. Met?
OUTPUT: N

###

# Tested on: PPARa:RXRa (NR concentration 270 nM, RXRa partner concentration 90 nM)
# test_summary: PBM binding z-score (relative to random genomic background probes); higher = stronger binding; sequences stand for … in GC…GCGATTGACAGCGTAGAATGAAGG
Field: class. Source value: PBM binding z-score. Ranges: LOW (below 1), MEDIUM (1 to below 3), HIGH (3 or more)

Consider the following illustrative entries.
INPUT: Could you place CGAACTAGGTCAGAACAGGACAGTCAAGGATGAT in its proper category? Many thanks.
OUTPUT: HIGH

INPUT: Could you place CCACACAGGTGAGAAGGTAACTCAGCCTCGATTA in its proper category? Many thanks.
OUTPUT: LOW

INPUT: Could you place CGAACTAGGTCATTGACAGGACGGTGAATAGTAA in its proper category? Many thanks.
OUTPUT: HIGH

INPUT: Could you place TCCAGTAGGTTAGTCGGGGCATTCAGCCAACATA in its proper category? Many thanks.
OUTPUT: MEDIUM

Continuing:
INPUT: Could you place ATATCTAGGTAAGACTCAGTTCAGTGAAGAACGC in its proper category? Many thanks.
OUTPUT: MEDIUM

INPUT: Could you place ATCTCTAGGTAACAAGTCCAGTGAAAGAGAGGAC in its proper category? Many thanks.
OUTPUT: LOW

INPUT: Could you place TCTTGCAGGCCAGAGGGTCACTCAAGAGGTACGG in its proper category? Many thanks.
OUTPUT: MEDIUM

INPUT: Could you place TTACCAAGGTGGAGGTCGTTGATCCCTCTGTAGA in its proper category? Many thanks.
OUTPUT: MEDIUM

INPUT: Could you place CCGACTGGGGCAAGGATACCATAACGCACAGCCA in its proper category? Many thanks.
OUTPUT: LOW

INPUT: Could you place CTCGTAAGGTCGGTTGAGGTGAGTATACGGATAA in its proper category? Many thanks.
OUTPUT: MEDIUM

INPUT: Could you place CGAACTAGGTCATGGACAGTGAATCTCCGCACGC in its proper category? Many thanks.
OUTPUT: HIGH

###

Listing of entries alongside the reported PBM binding z-score.
# System: PPARg:RXRa 30nM:10nM, anti-RXR (NR concentration 30 nM, RXRa partner concentration 10 nM)
# test_summary: PBM binding z-score (relative to random genomic background probes); higher = stronger binding; sequences stand for … in GC…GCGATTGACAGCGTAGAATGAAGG
# respond with the number and nothing more

INPUT: Write down the reported PBM binding z-score (system: PPARg:RXRa 30nM:10nM, anti-RXR (NR concentration 30 nM, RXRa partner concentration 10 nM)) of AATCCAGGGTCATCGTAGGCCAGAGTACGCACAG
OUTPUT: 3.18

INPUT: Write down the reported PBM binding z-score (system: PPARg:RXRa 30nM:10nM, anti-RXR (NR concentration 30 nM, RXRa partner concentration 10 nM)) of GCTGCTAGGTCAGGTTGGTCACCTAACGGGTACG
OUTPUT: -0.264

INPUT: Write down the reported PBM binding z-score (system: PPARg:RXRa 30nM:10nM, anti-RXR (NR concentration 30 nM, RXRa partner concentration 10 nM)) of CCGAGTAGGTTATGTGGCATTCAGGCAACGGTGA
OUTPUT: -0.095

INPUT: Write down the reported PBM binding z-score (system: PPARg:RXRa 30nM:10nM, anti-RXR (NR concentration 30 nM, RXRa partner concentration 10 nM)) of ACTCGGAGGACTAAGGTCAGAGCTACGCCAGTGA
OUTPUT: 0.578

INPUT: Write down the reported PBM binding z-score (system: PPARg:RXRa 30nM:10nM, anti-RXR (NR concentration 30 nM, RXRa partner concentration 10 nM)) of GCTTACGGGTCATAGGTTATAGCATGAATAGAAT
OUTPUT: 6.8

INPUT: Write down the reported PBM binding z-score (system: PPARg:RXRa 30nM:10nM, anti-RXR (NR concentration 30 nM, RXRa partner concentration 10 nM)) of GATACAGGGTCCGCTAGAGGCCAGAGTATGGAAA
OUTPUT: -0.417

###

# System: RARa homodimer (NR concentration 270 nM)
# test_summary: PBM binding z-score (relative to random genomic background probes); higher = stronger binding; sequences stand for … in GC…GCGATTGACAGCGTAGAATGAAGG
If the reported PBM binding z-score equals or exceeds -0.02, assign True. If not, assign False.

Consider the following illustrative entries.
INPUT: Record TCTATTACTTGAAGGGCAACCGACGAGTCCGTTT ; criterion: PBM binding z-score no lower than -0.02. Met?
OUTPUT: True

INPUT: Record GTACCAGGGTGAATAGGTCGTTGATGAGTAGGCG ; criterion: PBM binding z-score no lower than -0.02. Met?
OUTPUT: True

INPUT: Record GCTTGTAGATCAGGGTTAAGAAAGACTAAGCTAA ; criterion: PBM binding z-score no lower than -0.02. Met?
OUTPUT: False

INPUT: Record TAGCCTAGGTCTTTCAGGGGCCAGTATAGAAAGC ; criterion: PBM binding z-score no lower than -0.02. Met?
OUTPUT: False

Continuing:
INPUT: Record CCTACTGTGCCAAGGTCATTGATCAGTCAAAGCA ; criterion: PBM binding z-score no lower than -0.02. Met?
OUTPUT: True

INPUT: Record CCTTAAGGGTCACTGACAGGTTATAGCATTTGGA ; criterion: PBM binding z-score no lower than -0.02. Met?
OUTPUT: True

INPUT: Record TCTTGTAGATCAACTGGAGGTTAAGAAAGATCGA ; criterion: PBM binding z-score no lower than -0.02. Met?
OUTPUT: False

###

# System: RARb:RXRa (NR concentration 270 nM, RXRa partner concentration 90 nM)
# test_summary: PBM binding z-score (relative to random genomic background probes); higher = stronger binding; sequences stand for … in GC…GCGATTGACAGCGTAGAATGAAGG
Listing of entries alongside the reported PBM binding z-score.
# respond with the number and nothing more

INPUT: Provide measured PBM binding z-score value, entry: ATCGAAAGGGCGAAGGTGAGTATACCCACCCGAA
OUTPUT: 1.94

INPUT: Provide measured PBM binding z-score value, entry: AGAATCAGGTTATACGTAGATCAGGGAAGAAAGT
OUTPUT: 0.961

Continuing:
INPUT: Provide measured PBM binding z-score value, entry: TCGAGTAGCTTAGTCGGGGCATTCAGCCAACATA
OUTPUT: -0.355

INPUT: Provide measured PBM binding z-score value, entry: CGAACGCGGGCATGAGTTGATAGCAAATGCCGAT
OUTPUT: -0.0245

INPUT: Provide measured PBM binding z-score value, entry: GCTGCTAGGTCAACTGATTGTCAGCTAAAGCTCG
OUTPUT: 4.25

INPUT: Provide measured PBM binding z-score value, entry: TCATATAGGTAATACAGGGGAAAGTCGGCATCTA
OUTPUT: 0.566

INPUT: Provide measured PBM binding z-score value, entry: CCTACTGGGCCAAAAAAGTCATTGATGCCGATAA
OUTPUT: 0.134
